# TARGET_OR_TEST_SYSTEM: HCV NS3/4A protease (UniProt Q9WMX2)
# ASSAY_EXPLANATION: Method B: HCV Protease Assay using FRET Methodology
# Set-up: species or system Hepatitis C virus
# TEST_CONDITIONS: Enzyme/Assay: Biochemical; read-out: Inhibition, Biochemical
pIC50: −log10 of the molar value.
MEASURED_METRIC: pIC50

May I ask what pIC50 has been recorded for "C=CC(=O)NC[C@H](NC(=O)OC(C)(C)C)C(=O)N1C[C@H](Oc2cc(-c3ccccc3)nc3cc(OC)ccc23)C[C@H]1C(=O)N[C@]1(C(=O)NS(=O)(=O)c2ccccc2)C[C@H]1C=C" ? 7.00 to 8.00

* * *

Provide the reported pIC50 of each item.
# TARGET_OR_TEST_SYSTEM: D168A mutant of the HCV NS3/4A 1b protease enzyme (Hepatitis C virus genotype 1b, UniProt P26663, D1194A)
# Construct: 10× stocks of NS3/4A protease enzyme from Bioenza (Mountain View, Calif.); purchased Bioenza (Mountain View, Calif.)
# ASSAY_EXPLANATION: HCV Protease FRET Assay (IC50_APP), D168A mutant
# Format: biochemical
# TEST_CONDITIONS: apparent IC50, D168A mutant; read-out: IC50_APP, HCV D168A
pIC50: −log10 of the molar value.

{"COMPOUND": "C=CC(=O)NC[C@H](NC(=O)OC(C)(C)C)C(=O)N1C[C@H](Oc2nccc3ccc(Br)cc23)C[C@H]1C(=O)N[C@]1(C(=O)NS(=O)(=O)C2CC2)C[C@H]1C=C [Compound I-73]", "pIC50": "6.00 to 7.00"}
{"COMPOUND": "C=C[C@@H]1C[C@]1(NC(=O)[C@@H]1C[C@@H](Oc2cc(-c3ccccc3)nc3cc(OC)ccc23)CN1C(=O)[C@H](CCC(=O)N[C@H]1COC1=O)NC(=O)OC(C)(C)C)C(=O)NS(=O)(=O)C1CC1 [Compound I-69]", "pIC50": "6.00 to 7.00"}
{"COMPOUND": "C=CC(=O)NC[C@H](NC(=O)OC(C)(C)C)C(=O)N1C[C@H](Oc2cc(-c3ccccc3)nc3cc(OC)ccc23)C[C@H]1C(=O)N[C@]1(C(=O)NS(=O)(=O)c2ccccc2)C[C@H]1C=C [Compound I-3]", "pIC50": "5.00 to 6.00"}
{"COMPOUND": "C#CCOC(=O)N[C@@H](CN(C)C(=O)CCCl)C(=O)N1C[C@H](Oc2cc(-c3ccccc3)nc3cc(OC)ccc23)C[C@H]1C(=O)N[C@]1(C(=O)NS(=O)(=O)C2CC2)C[C@H]1C=C [Compound I-71]", "pIC50": "6.00 to 7.00"}

May I ask what pIC50 has been recorded for C=C[C@@H]1C[C@]1(NC(=O)[C@@H]1C[C@@H](Oc2cc(-c3ccccc3)nc3cc(OC)ccc23)CN1C(=O)[C@H](CN(C)C(=O)[C@H](Cl)c1ccccc1)NC(=O)OC(C)(C)C)C(=O)NS(=O)(=O)c1ccccc1 [Compound I-33] ? 5.00 to 6.00

* * *

# TARGET_OR_TEST_SYSTEM: D168A mutant of the HCV NS3/4A 1b protease enzyme (Hepatitis C virus genotype 1b, UniProt P26663, D1194A)
# Construct: 10× stocks of NS3/4A protease enzyme from Bioenza (Mountain View, Calif.); purchased Bioenza (Mountain View, Calif.)
# ASSAY_EXPLANATION: HCV Protease FRET Assay (IC50), D168A mutant
# Type: biochemical
MEASURED_METRIC: IC50

May I ask what IC50 has been recorded for C=C[C@@H]1C[C@]1(NC(=O)[C@@H]1C[C@@H](Oc2cc(-c3ccccc3)nc3cc(OC)ccc23)CN1C(=O)CNC(=O)CC)C(=O)NS(=O)(=O)c1ccccc1 [I^R-27] ? 1 to 10 µM
